- System: B. subtilis 168;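 also: first quartile when negative (synergy) and third quartile when positive (antagonism)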
- protocol: Bliss interaction score (quartile over a dose matrix) (fitness difference); higher = more antagonism (negative = synergy)
property: Bliss interaction score
Write the value as a bare number.

Fill blank: measured Bliss interaction score of the molecule CC(=O)OC[C@H]1O[C@@H]([S-])[C@H](OC(C)=O)[C@@H](OC(C)=O)[C@@H]1OC(C)=O.CCP(CC)CC.[Au+] [Auranofin] + CO[C@@H]1[C@@H](OC(N)=O)[C@@H](O)[C@H](Oc2ccc3c(O)c(NC(=O)c4ccc(O)c(CC=C(C)C)c4)c(=O)oc3c2C)OC1(C)C [Novobiocin] is ____. -0.0665

---

Entries and their measured Bliss interaction score follow.
- System: B. subtilis 168;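 also: first quartile when negative (synergy) and third quartile when positive (antagonism)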
- protocol: Bliss interaction score (quartile over a dose matrix) (fitness difference); higher = more antagonism (negative = synergy)
Write the value as a bare number.

Take a look at these entries with their results.
- CCC[C@@H]1C[C@@H](C(=O)N[C@@H]([C@H]2O[C@H](SC)[C@H](O)[C@@H](O)[C@H]2O)[C@@H](C)O)N(C)C1 [Lincomycin] + CO[C@@]12[C@H](COC(N)=O)C3=C(C(=O)C(C)=C(N)C3=O)N1C[C@@H]1N[C@@H]12 [MitomycinC]: 0.0735
- CCC[C@@H]1C[C@@H](C(=O)N[C@@H]([C@H]2O[C@H](SC)[C@H](O)[C@@H](O)[C@H]2O)[C@H](C)Cl)N(C)C1 [Clindamycin] + CCC[C@@H]1C[C@@H](C(=O)N[C@@H]([C@H]2O[C@H](SC)[C@H](O)[C@@H](O)[C@H]2O)[C@@H](C)O)N(C)C1 [Lincomycin]: 0.193
- COc1c(N2C[C@@H]3CCCN[C@@H]3C2)c(F)cc2c(=O)c(C(=O)O)cn(C3CC3)c12 [Moxifloxacin] + CCN(CC)CCOC(=O)c1ccc(N)cc1 [Procaine]: -0.015

Next compound, please.
Fill blank: measured Bliss interaction score of the compound CC(=O)O[C@H]1C[C@@]2(C)[C@@H](C[C@@H](O)[C@H]3[C@@]4(C)CC[C@@H](O)[C@@H](C)[C@@H]4CC[C@@]32C)/C1=C(\CCC=C(C)C)C(=O)O [Fusidic acid] + Cn1nnc(-c2ccc(-c3ccc(N4C[C@H](CO)OC4=O)cc3F)cn2)n1 [Tedizolid] is ____. -0.131
